Value source: patent US20250250357A1

biological target: T1, human MSLN-R3-3 polypeptide (human); assay: ELISA, coated MSLN-R3-3;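 also: chimeric antibodies in serial dilution bound to plate-coated antigen for 2 h at 37 °C, with a negative control antibody alongside, and TMB colour development stopped with HCl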
T1 construct: also called human MSLN-R3-3 protein; hMSLN-R3-3
property: OD450 at 0.001 nM (OD450)
# output: bare number, implied unit OD450

binder	OD450 at 0.001 nM / OD450
S009-F1.35.24 (antibody, human IgG1, kappa, V domains shown, Human-murine chimeric antibody, human IgG1/kappa constant regions) VH: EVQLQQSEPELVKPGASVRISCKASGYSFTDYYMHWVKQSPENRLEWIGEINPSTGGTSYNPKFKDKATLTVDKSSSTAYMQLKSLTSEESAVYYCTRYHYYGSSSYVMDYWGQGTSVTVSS VL: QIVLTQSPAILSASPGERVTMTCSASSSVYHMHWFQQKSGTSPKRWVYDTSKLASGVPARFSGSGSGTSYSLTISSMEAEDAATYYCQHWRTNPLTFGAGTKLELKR	0.07

Prompt line: # input binder: S009-F1.59.1 (antibody, human IgG1, kappa, V domains shown, Human-murine chimeric antibody, human IgG1/kappa constant regions) VH: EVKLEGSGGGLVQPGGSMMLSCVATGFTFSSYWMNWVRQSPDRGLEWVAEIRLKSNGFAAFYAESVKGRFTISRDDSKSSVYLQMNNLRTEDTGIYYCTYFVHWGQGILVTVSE VL: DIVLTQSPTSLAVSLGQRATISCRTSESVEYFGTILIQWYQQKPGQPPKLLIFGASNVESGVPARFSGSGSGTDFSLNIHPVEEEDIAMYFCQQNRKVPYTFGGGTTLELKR ; wanted: its OD450 at 0.001 nM
Response line: 0.06

Prompt line: Then this binder: S009-F1.56.1 (antibody, human IgG1, kappa, V domains shown, Human-murine chimeric antibody, human IgG1/kappa constant regions) VH: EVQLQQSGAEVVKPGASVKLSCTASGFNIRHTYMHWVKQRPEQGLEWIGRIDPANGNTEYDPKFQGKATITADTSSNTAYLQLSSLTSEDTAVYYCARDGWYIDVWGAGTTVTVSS VL: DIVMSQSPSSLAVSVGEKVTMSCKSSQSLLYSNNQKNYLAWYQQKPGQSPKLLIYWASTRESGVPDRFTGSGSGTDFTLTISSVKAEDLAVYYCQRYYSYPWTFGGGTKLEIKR
Response line: 0.07

Prompt line: Then this binder: S009-F1.25.10 (antibody, human IgG1, kappa, V domains shown, Human-murine chimeric antibody, human IgG1/kappa constant regions) VH: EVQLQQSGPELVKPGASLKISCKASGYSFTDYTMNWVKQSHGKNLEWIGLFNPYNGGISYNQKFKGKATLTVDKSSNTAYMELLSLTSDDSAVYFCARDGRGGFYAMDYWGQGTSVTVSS VL: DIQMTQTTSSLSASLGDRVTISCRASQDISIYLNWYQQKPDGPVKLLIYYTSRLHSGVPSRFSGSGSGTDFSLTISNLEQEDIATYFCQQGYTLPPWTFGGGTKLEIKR
Response line: 0.13
